src = patent US10308686B2

# Tested on: C. albicans (ATCC 10231)
# CONDITION SUMMARY: ATCC 10231
OBSERVATION TYPE: MIC, Fungi, C. albicans

Q: For `CCCCCCCCCCCCCCCC(=O)N[C@@H](C)CN(CC(=O)N[C@@H](C)CN(CC(=O)N[C@@H](CCC(=O)O)CN(CC(=O)N[C@@H](CCC(=O)O)CN(CC(=O)N[C@@H](CCC(=O)O)CN(CC(N)=O)C(=O)CC(=O)O)C(=O)CC(=O)O)C(=O)CC(=O)O)C(C)=O)C(C)=O` , what is its reported MIC, Fungi, C. albicans?
Ans: >100 µg/mL

Q: For `CCCCCCCCCCCC(=O)N[C@@H](CCCCN)CN(CC(N)=O)C(=O)CCCN` , what is its reported MIC, Fungi, C. albicans?
Ans: >50 µg/mL

Q: For `CCCCCCCCCCCCCCCC(=O)N[C@@H](C)CN(CC(=O)N[C@@H](C)CN(CC(=O)N[C@@H](Cc1ccccc1)CN(CC(=O)N[C@@H](Cc1ccccc1)CN(CC(=O)N[C@@H](Cc1ccccc1)CN(CC(N)=O)C(=O)CC(=O)O)C(=O)CC(=O)O)C(=O)CC(=O)O)C(C)=O)C(C)=O` , what is its reported MIC, Fungi, C. albicans?
Ans: >100 µg/mL
